IC50 for Poly [ADP-ribose] polymerase tankyrase-1 (Homo sapiens, UniProt O95271), merged from several publications.
One number for each entry, in nM.

The examples below pair each entry with its known result.
{"columns": ["COMPOUND", "SCALE UNIT", "IC50"],
 "data": [
  ["N#Cc1c(Cn2c(=O)n(C[C@H]3CC[C@H](C(=O)Nc4ccncc4)CC3)c(=O)c3c(F)cccc32)cccc1C(F)(F)F", "nM", 4],
  ["COc1ccc(C2(CNC(=O)c3ccc(NC(=O)c4cnc(C)o4)cc3Cl)CCOCC2)cc1", "nM", 1130],
  ["O=C1NCC2c3c(cccc31)CCN2C(=O)Cc1cccnc1 (stereo unspecified)", "nM", 3500],
  ["Cc1cccc2c(=O)[nH]c(N3CCC4(CC3)CN(CCO)c3cc(F)cc(F)c34)nc12", "nM", 5.5],
  ["COc1cc(F)c2c(c1)N(C)C(=O)C21CCN(c2nc3c(c(=O)[nH]2)CCCN3C)CC1", "nM", 4.4]
]}

# return IC50 for each item in the list
1. O=c1[nH]c(N2CCC3(CC2)CN(CCO)c2cc(Cl)cc(Cl)c23)nc2c1CCCC2
2. O=c1[nH]c(N2CCC3(CC2)OCc2ccccc23)nc2c1CCCC2
3. COc1ccc(C(=O)Nc2ccc(C(=O)NCC3(c4ccc(OC)cc4)CCOCC3)c(Cl)c2)cc1

18.2
31.5
11100

# return IC50 for each item in the list
1. CN1CCCc2c1nc(N1CCC3(CC1)C(=O)N(C)c1cc(OCCN4CCOCC4)cc(F)c13)[nH]c2=O
2. COc1ccc(N2CCN(c3nc4c(c(=O)[nH]3)COCC4)CC2)cc1

9.2
220
